system: LOC_OS01G02750-cb003; experiment: thermal shift delta Tm vs DMSO control; higher = stronger stabilization (binding); conditions: 12.5 µM; protein concentration 2 µM;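 note: purified Escherichia coli-expressed rice kinase domain construct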
# label = satisfied if thermal shift delta Tm >= 0.9 °C else not satisfied

COMPOUND	CLASS ASSIGNMENT
COCCNCc1ccc(-c2cc3nccc(Oc4ccc(NC(=O)C5(C(=O)Nc6ccc(F)cc6)CC5)cc4F)c3s2)nc1	satisfied
Cc1ccc(CNc2ncnc3ccc(-c4ccc(CO)o4)cc23)o1	satisfied
O=C1NCCc2[nH]c(-c3ccncc3)cc21	not satisfied
COc1ccc(Oc2cc(NCCC(F)(F)F)c3ncc(-c4ccc(C(=O)NC5CC5)c(C)c4)n3n2)c(F)c1F	satisfied

Asked: Could you tell me if the measured thermal shift delta Tm of CNC(=O)Nc1ccc(-c2nc(N3CC4CCC(C3)O4)c3cnn(C4CCC5(CC4)OCCO5)c3n2)cc1 reaches 0.9 °C or more?
Given back: satisfied

Asked: Could you tell me if the measured thermal shift delta Tm of COc1cc(N2CCN(C)CC2)ccc1Nc1nccc(-c2cn(C)c3cnccc23)n1 reaches 0.9 °C or more?
Given back: not satisfied

Asked: Could you tell me if the measured thermal shift delta Tm of Cn1nccc1Nc1nccc(-c2ccn([C@H](CO)c3ccc(Cl)c(F)c3)c(=O)c2)n1 reaches 0.9 °C or more?
Given back: satisfied

Asked: Could you tell me if the measured thermal shift delta Tm of Cc1nc(-c2cn3c(n2)-c2ccc(-c4cnn(C(C)(C)C(N)=O)c4)cc2OCC3)n(C(C)C)n1 reaches 0.9 °C or more?
Given back: not satisfied

Asked: Could you tell me if the measured thermal shift delta Tm of Cc1ccccc1-n1c(Cn2nc(-c3cccc(O)c3)c3c(N)ncnc32)nc2cccc(C)c2c1=O reaches 0.9 °C or more?
Given back: not satisfied

Asked: Could you tell me if the measured thermal shift delta Tm of COC(=O)c1ccc2c(c1)NC(=O)/C2=C(\Nc1ccc(N(C)C(=O)CN2CCN(C)CC2)cc1)c1ccccc1 reaches 0.9 °C or more?
Given back: not satisfied

Asked: Could you tell me if the measured thermal shift delta Tm of COc1cc2nccc(Oc3ccc(NC(=O)NC4CC4)c(Cl)c3)c2cc1C(N)=O [Lenvatinib (E7080)] reaches 0.9 °C or more?
Given back: satisfied

Asked: Could you tell me if the measured thermal shift delta Tm of c1cncc(CN2CCC(n3ncc4c(N5CCOCC5)nc(-c5ccc6[nH]ccc6c5)nc43)CC2)c1 reaches 0.9 °C or more?
Given back: not satisfied

Asked: Could you tell me if the measured thermal shift delta Tm of C=CC(=O)Nc1cccc(Nc2nc(Nc3ccc(Oc4ccnc(C(=O)NC)c4)cc3)ncc2F)c1 reaches 0.9 °C or more?
Given back: satisfied

Asked: Could you tell me if the measured thermal shift delta Tm of C=CCc1ccc(O)c(-c2ccc(O)c(CC=C)c2)c1 reaches 0.9 °C or more?
Given back: satisfied

Asked: Could you tell me if the measured thermal shift delta Tm of CNC(=O)c1ccc(Nc2ncc(C(F)(F)F)c(NCc3nccnc3N(C)S(C)(=O)=O)n2)cc1 reaches 0.9 °C or more?
Given back: satisfied
